Can you tell me growth for the items I'm about to list?
System: BT-549 breast
Assay: NCI-60 one-dose screen, 48 h (100 = growth as untreated, 0 = no growth, -100 = all killed)
Conditions: 10 µM unless noted
This is part of a sample that, as a whole, favours compounds with a hit. Of some 83,000 tested, about 20% had one in any assay.
Express your answer in %, writing the number without its unit.

Q: Tell me growth of `Cc1ccc(/C=C(/C#N)n2nnc3cccc(F)c32)cc1` when tested on BT-549 breast.
A: 27.1

Q: Tell me growth of `C=C1C(=O)O[C@H]2[C@H]1CC/C(CNC(=O)/C=C/c1cccc(OC)c1)=C\CC[C@@]1(C)O[C@@H]21` when tested on BT-549 breast.
A: -12.3

Q: Tell me growth of `C=C(C)[C@@H]1CC[C@]2(C(=O)N[C@H](CO)Cc3ccccc3)CC[C@]3(C)[C@H](CC[C@@H]4[C@@]5(C)CCCNC(C)(C)[C@@H]5CC[C@]43C)[C@@H]12` when tested on BT-549 breast.
A: -88.1

Q: Tell me growth of `Cc1c(C(=O)NCCC(=O)NO)sc2ncnc(Nc3ccc(NC(=O)Nc4cccc(C(F)(F)F)c4)cc3)c12` when tested on BT-549 breast.
A: 137

Q: Tell me growth of `COC1=CC(=O)c2ccccc2C1=O` when tested on BT-549 breast.
A: 85

Q: Tell me growth of `COc1cc(CC(=O)n2ncc3ccc(N)cc32)cc(OC)c1OC` when tested on BT-549 breast.
A: 91.3

Q: Tell me growth of `Cc1nc(N)nc(N[C@@H](C)c2nc3cccc(NCc4ccc(C(=O)NO)cc4)c3c(=O)n2-c2ccccc2)n1` when tested on BT-549 breast.
A: 99

Q: Tell me growth of `O=C(CCN1CCCC1)Nc1ccc2c(Nc3ccc(F)cc3)c3ccccc3nc2c1` when tested on BT-549 breast.
A: 51.2

Q: Tell me growth of `COc1cc(/C=N/O)nc(-c2ccccn2)c1` when tested on BT-549 breast.
A: 33.7

Q: Tell me growth of `CN(CCN(C)c1ccc(C(=N)N)cc1)c1ccc(C(=N)N)cc1` when tested on BT-549 breast.
A: 86

Q: Tell me growth of `N#Cc1c(NCc2ccccc2I)sc2c1CCCCC2` when tested on BT-549 breast.
A: 102

Q: Tell me growth of `CCC(=O)Oc1ccc(/C(=C(\C)c2ccccc2)c2ccc(OCCN3CCCCC3)cc2)cc1` when tested on BT-549 breast.
A: 82.6

###

Tested on: HOP-62 NSCLC
Test: NCI-60 one-dose screen, 48 h
Details: 10 µM unless noted
Compounds without any hit were thinned out: in the full panel of roughly 83,000, 20% have a hit. Calls of active or inactive are those of the source. Rule for the calls: active = growth percent below 10; inactive = the rest.
Give your call using only these classes: y (active), n (inactive)

Q: Entry COc1ccc2c(c1)C(=O)CC(c1ccccc1OC)O2 (centres undefined) : call = ?
A: n

Q: Entry `Cc1cc2nc3c4cc(C=O)ccc4n(CCN(C)C)c3nc2cc1C` : call = ?
A: y

Q: Entry `COc1cccc(-c2ccc3c(c2)NC(=O)/C3=C\c2ccc[nH]2)c1` : call = ?
A: n

Q: Entry `COc1ccc(/C=C2\Oc3cc(OCCCN4CCCCC4)ccc3C2=O)cc1OC` : call = ?
A: n

Q: Entry `COc1cc2c(c(O)c1Br)C(=O)c1c(O)cc(C[C@H](C)O)cc1[C@H]2[C@H]1c2cc(C[C@H](C)O)cc(O)c2C(=O)c2c1cc(OC)c(Br)c2O` : call = ?
A: n

Q: Entry `O=C(Cn1c(C(=O)c2ccccc2)nc2ccccc21)c1ccc(F)cc1` : call = ?
A: n

Q: Entry CCOC(=O)C1=C(CCl)NC(=O)NC1c1ccc2c(c1)OCO2 (centres undefined) : call = ?
A: n

Q: Entry `COc1cc(/C=C/c2cc(O)c(C(C)=O)c(O)c2)cc2c1O[C@]1(C)CC[C@@H](O)C(C)(C)[C@H]1C2` : call = ?
A: n

Q: Entry `CNCCn1c(=O)c2cc(OC)c(OC)cc2c2ccc3cc4c(cc3c21)OCO4` : call = ?
A: y

Q: Entry COC(=O)C1=C(C(=O)ON)C2C=CC1(C(Cc1ccccc1)Nc1ccccc1)O2 (centres undefined) : call = ?
A: n

Q: Entry `O=C(N/N=C/c1cc2ccccc2n2nnnc12)Nc1ccccc1` : call = ?
A: n

Q: Entry `O=C1Nc2ccc(F)cc2/C1=C\c1c(-c2ccccc2)nc2ccccn12` : call = ?
A: n

Q: Entry `O=C(Nc1ccc(F)cc1)Nc1ccc(NC(=O)c2cc(Cl)nc3ccccc23)cc1` : call = ?
A: n

Q: Entry `COc1ccc2[nH]c(=O)c(CN3CCN(c4nccc(-c5ccc(Cl)cc5)n4)CC3)cc2c1` : call = ?
A: n
